Data provenance is ChEMBL document CHEMBL1134977.

- tested.target: Hepatitis C virus serine protease, NS3/NS4A (Hepatitis C virus, UniProt A3EZI9+D2K2A8)
- Sequence (D2K2A8 whole entry): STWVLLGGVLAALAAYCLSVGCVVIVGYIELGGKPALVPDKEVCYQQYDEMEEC
- Sequence (A3EZI9 whole entry): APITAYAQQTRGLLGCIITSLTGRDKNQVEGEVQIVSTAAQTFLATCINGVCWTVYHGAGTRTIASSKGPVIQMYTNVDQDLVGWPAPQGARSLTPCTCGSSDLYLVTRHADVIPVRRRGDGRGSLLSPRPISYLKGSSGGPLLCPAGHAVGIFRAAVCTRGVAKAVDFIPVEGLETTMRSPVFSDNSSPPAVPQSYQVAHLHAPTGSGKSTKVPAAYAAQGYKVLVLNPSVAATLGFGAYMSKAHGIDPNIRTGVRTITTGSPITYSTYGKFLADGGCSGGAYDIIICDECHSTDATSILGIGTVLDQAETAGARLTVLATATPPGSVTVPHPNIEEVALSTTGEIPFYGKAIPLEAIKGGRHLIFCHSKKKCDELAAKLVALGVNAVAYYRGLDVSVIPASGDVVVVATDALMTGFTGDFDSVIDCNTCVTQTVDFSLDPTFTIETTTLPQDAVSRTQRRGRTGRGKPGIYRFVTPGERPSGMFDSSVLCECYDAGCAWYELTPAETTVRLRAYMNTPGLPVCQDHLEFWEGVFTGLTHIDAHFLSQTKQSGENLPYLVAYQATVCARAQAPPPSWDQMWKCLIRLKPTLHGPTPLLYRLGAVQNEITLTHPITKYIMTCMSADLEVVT
- assay.info: Inhibitory concentration against hepatitis C virus NS3/4A protease on 4 hr pre-incubation in fluorogenic assay
- Assay type: protein-complex assay, Hepacivirus hominis
pIC50: −log10 of the molar value.
test.readout: pIC50

Example compounds with recorded pIC50:
compound	tested.target	pIC50
CC[C@H]1C(=O)N(C(C)=O)[C@H]2CCN(C(=O)[C@@H](NC(=O)OC(C)(C)C)C(C)C)[C@H]12	Hepatitis C virus serine protease, NS3/NS4A (Hepatitis C virus, UniProt A3EZI9+D2K2A8)	3.67
CCC1C(=O)N(S(C)(=O)=O)[C@H]2CCN(C(=O)[C@@H](NC(=O)OC(C)(C)C)C(C)C)C12 (single isomer, unassigned)	Hepatitis C virus serine protease, NS3/NS4A (Hepatitis C virus, UniProt A3EZI9+D2K2A8)	3.74

a: CC[C@@H]1C(=O)N(C(C)=O)[C@H]2CCN(C(=O)[C@@H](NC(=O)OC(C)(C)C)C(C)C)[C@H]12
b: CC[C@H]1C(=O)N(S(C)(=O)=O)[C@H]2CCN(C(=O)[C@@H](NC(=O)OC(C)(C)C)C(C)C)[C@H]12
Select the item whose pIC50 value is smaller, choosing between a and b . Answer format: the label of the selected item.
b

---

- tested.target: Hepatitis C virus serine protease, NS3/NS4A (Hepatitis C virus, UniProt A3EZI9+D2K2A8)
- assay.info: Inhibitory concentration against hepatitis C virus NS3/4A protease on 18 h pre-incubation in fluorogenic assay
- Assay type: protein-complex assay, Hepacivirus hominis
Residues, ends and D or L forms follow the SMILES beside them. *: point of attachment. X1 = CCC1C(=O)N(S(C)(=O)=O)[C@H]2CCN(*)[C@H]12
test.readout: IC50 (µM)

Example molecules with recorded IC50:
molecule	tested.target	test.readout	unit.label	numeric.result
CCC1C(=O)N(S(C)(=O)=O)[C@H]2CCN(C(=O)[C@@H](NC(=O)OC(C)(C)C)C(C)C)C12 (single isomer, unassigned)	Hepatitis C virus serine protease, NS3/NS4A (Hepatitis C virus, UniProt A3EZI9+D2K2A8)	IC50	µM	140
CC[C@H]1C(=O)N(S(C)(=O)=O)[C@H]2CCN(C(=O)[C@@H](NC(=O)OC(C)(C)C)C(C)C)[C@H]12	Hepatitis C virus serine protease, NS3/NS4A (Hepatitis C virus, UniProt A3EZI9+D2K2A8)	IC50	µM	172

A: CCC1C(=O)N(S(C)(=O)=O)[C@H]2CCN(C(=O)[C@@H](NC(=O)[C@@H](NC(=O)[C@H](CC(=O)O)NC(=O)[C@H](CCC(=O)O)NC(C)=O)C(C)C)C(C)C)[C@H]12 (stereo not given in full) (Ac-EDVV-X1)
B: CC[C@@H]1C(=O)N(C(C)=O)[C@H]2CCN(C(=O)[C@@H](NC(=O)OC(C)(C)C)C(C)C)[C@H]12
C: CC[C@H]1C(=O)N(C(C)=O)[C@H]2CCN(C(=O)[C@@H](NC(=O)OC(C)(C)C)C(C)C)[C@H]12
Rank items: key IC50, increasing. Show the ranking through the labels, in the order asked for.
B, A, C

---

- tested.target: Hepatitis C virus serine protease, NS3/NS4A (Hepatitis C virus, UniProt A3EZI9+D2K2A8)
- assay.info: Inhibitory concentration against hepatitis C virus NS3/4A protease on 4 hr pre-incubation in chromogenic assay
- Format: protein-complex assay, Hepacivirus hominis
pIC50: −log10 of the molar value. Residues, ends and D or L forms follow the SMILES beside them. *: point of attachment. X1 = CCC1C(=O)N(S(C)(=O)=O)[C@H]2CCN(*)[C@H]12
test.readout: pIC50

Example compounds with recorded pIC50:
compound	test.readout	numeric.result
CC[C@H]1C(=O)N(S(C)(=O)=O)[C@H]2CCN(C(=O)[C@@H](NC(=O)OC(C)(C)C)C(C)C)[C@H]12	pIC50	4.00
CCC1C(=O)N(S(C)(=O)=O)[C@H]2CCN(C(=O)[C@@H](NC(=O)OC(C)(C)C)C(C)C)C12 (single isomer, unassigned)	pIC50	4.21
CC[C@@H]1C(=O)N(C(C)=O)[C@H]2CCN(C(=O)[C@@H](NC(=O)OC(C)(C)C)C(C)C)[C@H]12	pIC50	4.06

I: CCC1C(=O)N(S(C)(=O)=O)[C@H]2CCN(C(=O)[C@@H](NC(=O)[C@@H](NC(=O)[C@H](CC(=O)O)NC(=O)[C@H](CCC(=O)O)NC(C)=O)C(C)C)C(C)C)[C@H]12 (stereo partly specified) (Ac-EDVV-X1)
II: CC[C@@H]1C(=O)N(S(C)(=O)=O)[C@H]2CCN(C(=O)[C@@H](NC(=O)OC(C)(C)C)C(C)C)[C@H]12
Select the item whose pIC50 value is smaller, choosing between I and II . Answer format: the label of the selected item.
I
